- System Tested: human α7 nAChR (Homo sapiens, UniProt P36544)
- Construct: expressed in transfected cells
- Sequence (P36544 23-502): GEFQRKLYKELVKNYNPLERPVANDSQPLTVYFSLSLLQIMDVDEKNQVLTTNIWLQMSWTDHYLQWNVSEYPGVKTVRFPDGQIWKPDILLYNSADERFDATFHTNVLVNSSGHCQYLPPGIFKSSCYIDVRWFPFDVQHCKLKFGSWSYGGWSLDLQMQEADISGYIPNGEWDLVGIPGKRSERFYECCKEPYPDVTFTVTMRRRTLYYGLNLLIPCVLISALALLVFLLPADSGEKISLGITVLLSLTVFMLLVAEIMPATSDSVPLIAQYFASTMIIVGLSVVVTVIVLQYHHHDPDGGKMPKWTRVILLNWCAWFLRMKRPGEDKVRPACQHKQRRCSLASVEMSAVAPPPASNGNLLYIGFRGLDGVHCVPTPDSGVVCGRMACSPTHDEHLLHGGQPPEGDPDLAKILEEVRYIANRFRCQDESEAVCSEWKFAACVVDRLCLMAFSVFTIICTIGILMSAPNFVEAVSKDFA
- Measurement Protocol: Evaluation of PAM activity with human α7 nACh receptor stably expressing cells (aequorin luminescence, FDSS7000)
- Assay type: cell-based
- Measurement Parameters: 10 μM test compound; ACh at EC20; ratio of RLU (Max-Min) to control wells; read-out: α7PAM (%) @10 μM
# key: entry, value: activity at 10 µM
The reply should be a number in %, with the unit left off.

[[record]]
compound_structure_string = "O=C(NC1CCCC1)N1CCC(n2cnc(-c3cccc(F)c3)c2)CC1"
system_tested = "human α7 nAChR (Homo sapiens, UniProt P36544)"
reported_property = "activity at 10 µM"
endpoint_result = 319

[[record]]
compound_structure_string = "O=C(NC1CCCCC1)N1CCC(n2cnc(-c3ccc(Cl)cc3)c2)CC1"
system_tested = "human α7 nAChR (Homo sapiens, UniProt P36544)"
reported_property = "activity at 10 µM"
endpoint_result = 656

[[record]]
compound_structure_string = "O=C(NC1CCC(F)(F)CC1)N1[C@@H]2CC[C@H]1C[C@H](n1cnc(-c3cc(F)ccc3F)c1Cl)C2"
system_tested = "human α7 nAChR (Homo sapiens, UniProt P36544)"
reported_property = "activity at 10 µM"
endpoint_result = 913


// below: activity at 10 µM requested for another molecule
Request: Give reported activity at 10 µM value for N#Cc1c(-c2ccc(Cl)cc2)ncn1C1CCN(C(=O)C2CCC(F)(F)CC2)CC1
Result: 692

----------
Reported values of activity at 10 µM for individual entries
- System Tested: human α7 nAChR (Homo sapiens, UniProt P36544)
- Construct: expressed in transfected cells
- Measurement Protocol: Evaluation of PAM activity with human α7 nACh receptor stably expressing cells (aequorin luminescence, FDSS7000)
- Format: cell-based
- Measurement Parameters: 10 μM test compound; ACh at EC20; ratio of RLU (Max-Min) to control wells; read-out: α7PAM (%) @10 μM
Just the number in %, nothing appended.

[[record]]
compound = "O=C(NC1CCCCC1)N1[C@@H]2CC[C@H]1C[C@H](n1cnc(-c3cc(F)ccc3F)c1)C2"
system_tested = "human α7 nAChR (Homo sapiens, UniProt P36544)"
reported_property = "activity at 10 µM"
readout_unit = "%"
endpoint_result = 229


Request: Answer with activity at 10 µM of CC(C)(F)C(=O)N[C@H]1CC[C@@H](n2cnc(-c3cccc(OC(F)(F)F)c3)c2Cl)CC1 measured for human α7 nAChR (Homo sapiens, UniProt P36544).
Result: 210

Request: Return reported activity at 10 µM for target or system human α7 nAChR (Homo sapiens, UniProt P36544), item CC(C)(F)C(=O)N[C@H]1CC[C@@H](n2cnc(-c3cc(F)ccc3F)c2Cl)CC1 .
Result: 643

Request: // fetch activity at 10 µM for O=C(NC1CCCCCC1)N1CCC(n2cnc(-c3cccc(F)c3)c2)CC1 ; system: human α7 nAChR (Homo sapiens, UniProt P36544)
Result: 260

Request: Send back human α7 nAChR (Homo sapiens, UniProt P36544) activity at 10 µM of O=C(NC1CCCCC1)N1CCC(n2cnc(-c3ccc(Cl)s3)c2)CC1 only.
Result: 853

----------
Measured activity at 10 µM, listed per entry for reference.
- System Tested: human α7 nAChR (Homo sapiens, UniProt P36544)
- Construct: expressed in transfected cells
- Measurement Protocol: Evaluation of PAM activity with human α7 nACh receptor stably expressing cells (aequorin luminescence, FDSS7000)
- Type: cell-based
- Measurement Parameters: 10 μM test compound; ACh at EC20; ratio of RLU (Max-Min) to control wells; read-out: α7PAM (%) @10 μM
Give just the numeric value; % need not be written.

These solved cases illustrate the format of a correct answer.
[[record]]
molecule = "O=C(C1CCC(F)(F)CC1)N1[C@@H]2CC[C@H]1C[C@H](n1cnc(-c3ccc(F)cc3)c1)C2"
endpoint_result = 143

[[record]]
molecule = "O=C(NC1CCCCC1)N1CCC(n2cnc(-c3ccccn3)c2)CC1"
endpoint_result = 151

[[record]]
molecule = "O=C(NC1CCC(F)(F)CC1)N1CCC(n2cnc(-c3ccc(F)c(F)c3)c2)CC1"
endpoint_result = 798


Request: State its activity at 10 µM: O=C(NC1CC2CCC1C2)N1CCC(n2cnc(-c3ccccc3)c2)CC1 (stereo not shown)
Result: 311

----------
Recorded activity at 10 µM, one value per entry.
- System Tested: human α7 nAChR (Homo sapiens, UniProt P36544)
- Construct: expressed in transfected cells
- Measurement Protocol: Evaluation of PAM activity with human α7 nACh receptor stably expressing cells (aequorin luminescence, FDSS7000)
- Type: cell-based
- Measurement Parameters: 10 μM test compound; ACh at EC20; ratio of RLU (Max-Min) to control wells; read-out: α7PAM (%) @10 μM
Quick reminder: number only, in %, skip the unit.

Request: Indicate its recorded activity at 10 µM; the compound in question is CC(C)(F)C(=O)N[C@H]1CC[C@@H](n2cnc(-c3ccc(OC(F)(F)F)c(F)c3)c2C#N)CC1 [Example 348]
Result: 131

----------
- System Tested: human α7 nAChR (Homo sapiens, UniProt P36544)
- Construct: expressed in transfected cells
- Measurement Protocol: Evaluation of PAM activity with human α7 nACh receptor stably expressing cells (aequorin luminescence, FDSS7000)
- Type: cell-based
- Measurement Parameters: 10 μM test compound; ACh at EC20; ratio of RLU (Max-Min) to control wells; read-out: α7PAM (%) @10 μM
Kindly apply the following: true (1) if activity at 10 µM is less than 400%, false (0) in every other case.

Below, 6 compounds whose answers are already recorded.
[[record]]
compound = "O=C(NC1CCC(F)(F)CC1)N1[C@@H]2CC[C@H]1C[C@@H](n1cnc(-c3cccc(F)c3F)c1Cl)C2 [Example 398]"
qualitative_label = "false (0)"

[[record]]
compound = "N#Cc1c(-c2cccc(C(F)(F)F)c2)ncn1C1CCN(C(=O)C2CCC(F)(F)CC2)CC1 [Example 158]"
qualitative_label = "true (1)"

[[record]]
compound = "N#Cc1c(-c2ccc(F)cc2)ncn1[C@@H]1C[C@H]2CC[C@@H](C1)N2C(=O)NC1CCCCC1 [Example 421]"
qualitative_label = "false (0)"

[[record]]
compound = "CC(C)(F)C(=O)N[C@H]1CC[C@@H](n2cnc(-c3ccccc3F)c2)CC1 [Example 297]"
qualitative_label = "false (0)"

[[record]]
compound = "COc1ccc(-c2cn([C@H]3CC[C@@H](NC(=O)C(C)(C)F)CC3)cn2)cc1 [Example 285]"
qualitative_label = "false (0)"

[[record]]
compound = "CC(C)(F)C(=O)N[C@H]1CC[C@@H](n2cnc(-c3ccc(F)c(OC(F)(F)F)c3)c2Cl)CC1 [Example 330]"
qualitative_label = "true (1)"


From here, focus on the item given below.
Request: Threshold test, activity at 10 µM < 400%: N#Cc1c(-c2ccc(F)cc2)ncn1[C@H]1CC[C@@H](NC(=O)C2CCOCC2)CC1 [Example 336]
Result: false (0)

----------
- System Tested: human α7 nAChR (Homo sapiens, UniProt P36544)
- Construct: expressed in transfected cells
- Measurement Protocol: Evaluation of PAM activity with human α7 nACh receptor stably expressing cells (aequorin luminescence, FDSS7000)
- Assay type: cell-based
- Measurement Parameters: 10 μM test compound; ACh at EC20; ratio of RLU (Max-Min) to control wells; read-out: α7PAM (%) @10 μM
Lab note: anything with activity at 10 µM at or over 400% counts as 1; the rest go in -1.

Known results for compounds:
[[record]]
compound = "Cc1c(-c2ccccc2)ncn1C1CCN(C(=O)NC2CCCCC2)CC1"
qualitative_label = 1

[[record]]
compound = "CC(C)(F)C(=O)N[C@H]1CC[C@@H](n2cnc(-c3ccccc3OC(F)(F)F)c2C#N)CC1"
qualitative_label = -1

[[record]]
compound = "O=C(NC1CCCCC1)N1CCC(n2cnc(-c3ccccc3)c2)CC1"
qualitative_label = -1

[[record]]
compound = "O=C(NC1CCCCC1)N1CCC(n2cnc(-c3cccnc3)c2)CC1"
qualitative_label = -1

[[record]]
compound = "O=C(N[C@H]1CC[C@@H](n2cnc(-c3ccccc3)c2Cl)CC1)C1CCC1"
qualitative_label = 1


Request: Record O=C(N[C@H]1CC[C@@H](n2cnc(-c3ccccc3)c2Cl)CC1)C1CC(F)(F)C1 ; criterion: activity at 10 µM no lower than 400%. Met?
Result: 1

Request: Is activity at 10 µM for O=C(NC1COC1)[C@H]1CC[C@@H](n2cnc(-c3ccc(C(F)(F)F)cc3)c2Cl)CC1 at or above 400%?
Result: 1

Request: Answer whether activity at 10 µM of COC1CCC(NC(=O)N2CCC(n3cnc(-c4ccc(C(F)(F)F)cc4)c3)CC2)CC1 (centres unmarked) is greater than or equal to 400%.
Result: -1

Request: Please indicate if the recorded activity at 10 µM for O=C(C1CCOCC1)N1CCC(n2cnc(-c3ccc(F)cc3)c2Cl)CC1 meets or exceeds 400%.
Result: -1

Request: Has O=C(NC1CCOCC1)N1[C@@H]2CC[C@H]1C[C@@H](n1cnc(-c3cccc(F)c3F)c1Cl)C2 a recorded activity at 10 µM greater than or equal to 400%?
Result: 1

Request: Does the reported activity at 10 µM for COC1CCC(C(=O)N2CCC(n3cnc(-c4ccccc4)c3)CC2)CC1 (centres unmarked) fall at or above the 400% mark?
Result: -1

Request: Threshold query (activity at 10 µM >= 400%) on CC(C)(F)C(=O)N[C@H]1CC[C@@H](n2cnc(-c3cccc(C(F)(F)F)c3)c2Cl)CC1
Result: -1

Request: Check the entry O=C(N[C@H]1CC[C@@H](n2cnc(-c3ccc(F)cc3)c2)CC1)C(F)F : does activity at 10 µM equal or exceed 400%?
Result: -1

Request: Would you say CC(F)(F)C(=O)N[C@H]1CC[C@@H](n2cnc(-c3ccc(F)cc3)c2)CC1 shows activity at 10 µM at minimum 400%?
Result: -1
